Target: rat NK1 receptor (rat) (UniProt P14600)
Sequence (P14600 whole entry): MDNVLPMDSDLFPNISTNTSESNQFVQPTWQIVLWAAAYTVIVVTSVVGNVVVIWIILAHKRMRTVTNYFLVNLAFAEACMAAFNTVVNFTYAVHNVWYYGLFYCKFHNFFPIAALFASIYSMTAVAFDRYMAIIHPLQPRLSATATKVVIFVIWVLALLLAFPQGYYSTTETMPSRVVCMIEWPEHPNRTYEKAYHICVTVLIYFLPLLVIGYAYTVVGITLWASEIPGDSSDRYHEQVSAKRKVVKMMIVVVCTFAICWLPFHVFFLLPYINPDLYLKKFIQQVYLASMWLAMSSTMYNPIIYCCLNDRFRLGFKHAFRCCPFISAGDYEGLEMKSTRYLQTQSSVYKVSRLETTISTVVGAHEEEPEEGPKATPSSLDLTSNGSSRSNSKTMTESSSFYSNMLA
Experiment: radioligand competition vs [3H]substance P, membranes of rNK1 CHO cells
Bridge positions count the residues as written; N and C are the ends. Square brackets hold non-standard residues; d marks the D form. Ends that are not written are not given here. * marks the point of attachment. NH(3,5-(CF3)2-benzyl) = FC(F)(F)c1cc(CN*)cc(C(F)(F)F)c1; NH‑Bn(CF3)2 = C-terminal Bn(CF3)2 amide; dPen = CC(C)(S)[C@@H](N)C(=O)O; Pen = CC(C)(S)[C@H](N)C(=O)O; Nle = CCCC[C@H](N)C(=O)O
Each entry below lists one item and its recorded pKi value.
# pKi: negative log10 of molar concentration; output just the value

Below are worked cases with known answers.
Y[dC]GF[Nle]P[dC]W-{NH(3,5-(CF3)2-benzyl)} (disulfide 2-7) [Tyr[DCysGlyPheNleProDCys]TrpNHBn(CF3)2 (TY038)] = 8.15
Y[dPen]GF[Nle]P[Pen]W-{NH‑Bn(CF3)2} (disulfide 2-7) [Tyr[DPenGlyPheNleProPen]TrpNHBn(CF3)2 (TY047)] = 6.79

Here is the next item to consider.
IN: Which pKi value belongs to Y[dPen]GF[Nle]P[dPen]W-{NH‑Bn(CF3)2} (disulfide 2-7) [Tyr[DPenGlyPheNleProDPen]TrpNHBn(CF3)2 (TY048)] ?
OUT: 7.59
